Reported viability, T/C values for a set of compounds
Test system: LG0567-F671-PDC KRAS tumor spheroid viability
Test: Anticancer human tumor LG0567-F671-PDC patient-derived lung adenocarcinoma cell line growth inhibition [KRAS2]
Conditions: second compound 0.316 µM; first compound 0.1 µM; active compounds read low; spheroids with HUVEC and MSC
Source text: Multicellular complex tumor spheroid response to RAS pathway inhibitors in combination with a targeted agents in patient-derived cell lines with oncogenic KRAS variants from multiple cancer types A high-throughput screen of multi-cell type tumor spheroids was designed to identify active combinations of targeted small molecules and KRAS pathway inhibitors. […] Compounds. […] If the clinical Cmax for an agent had not been determined, the highest concentration tested was 10 microM. […]

Past entries and their recorded results:
1) COc1cc(Nc2ncc3c(n2)-c2ccc(Cl)cc2C(c2c(F)cccc2OC)=NC3)ccc1C(=O)O + C=CC(=O)N1CCN(c2nc(OCC3CCCN3C)nc3c2CCN(c2cccc4cccc(C)c24)C3)CC1CC#N ... 22.6%
2) CN(C)C/C=C/C(=O)Nc1cc2c(Nc3ccc(F)c(Cl)c3)ncnc2cc1O[C@H]1CCOC1 + C=CC(=O)N1CCN(c2nc(=O)n(-c3c(C)ccnc3C(C)C)c3nc(-c4c(O)cccc4F)c(F)cc23)C(C)C1 ... 28.4%
3) CN(C)C/C=C/C(=O)Nc1cc2c(Nc3ccc(F)c(Cl)c3)ncnc2cc1O[C@H]1CCOC1 + CC1OCC2(CCN(c3cnc(Sc4ccnc(N)c4Cl)c(N)n3)CC2)C1N ... 32.7%
4) CC1(C)CCC(CN2CCN(c3ccc(C(=O)NS(=O)(=O)c4ccc(NCC5CCOCC5)c([N+](=O)[O-])c4)c(Oc4cnc5[nH]ccc5c4)c3)CC2)=C(c2ccc(Cl)cc2)C1 + COc1cc2nc(C)nc(NC(C)c3cc(N)cc(C(F)(F)F)c3)c2cc1OC1CCOC1 ... 66.5%

Inquiry: Recorded viability, T/C of CC1OCC2(CCN(c3cnc(Sc4ccnc(N)c4Cl)c(N)n3)CC2)C1N (stereo not given) + C=CC(=O)N1CCN(c2nc(OCC3CCCN3C)nc3c2CCN(c2cccc4cccc(C)c24)C3)CC1CC#N , please.
Reply text: 17.8%

* * *

test system: LG0567-F671-PDC KRAS tumor spheroid viability; test: Anticancer human tumor LG0567-F671-PDC cell line growth inhibition [KRAS2]; details: second compound 1 µM; first compound 1 µM; active compounds read low; spheroids with HUVEC and MSC;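 further: drug exposure lasted seven days after spheroids formed for three days; 100% = DMSO vehicle control viability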
Binary call on viability, T/C with cut-off 30%: strictly below means Satisfied, and equality or higher means Not satisfied.

Solved entries:
1. CC(C)NCC(C(=O)N1CCN(c2ncnc3c2C(C)CC3O)CC1)c1ccc(Cl)cc1 (centres undefined) + CC1OCC2(CCN(c3cnc(Sc4ccnc(N)c4Cl)c(N)n3)CC2)C1N ... Satisfied
2. Cn1nccc1Nc1nccc(-c2cc3c(s2)C(C)(C)N(CCN2CCOCC2)C3=O)n1 + C=CC(=O)N1CCN(c2nc(=O)n(-c3c(C)ccnc3C(C)C)c3nc(-c4c(O)cccc4F)c(F)cc23)C(C)C1 ... Satisfied
3. CCN1CCN(Cc2ccc(Nc3ncc(F)c(-c4cc(F)c5nc(C)n(C(C)C)c5c4)n3)nc2)CC1 + C=CC(=O)N1CCN(c2nc(OCC3CCCN3C)nc3c2CCN(c2cccc4cccc(C)c24)C3)CC1CC#N ... Not satisfied
4. COc1cc(Nc2ncc3c(n2)-c2ccc(Cl)cc2C(c2c(F)cccc2OC)=NC3)ccc1C(=O)O + COc1cc2nc(C)nc(NC(C)c3cc(N)cc(C(F)(F)F)c3)c2cc1OC1CCOC1 ... Not satisfied
5. CC(C)NCC(C(=O)N1CCN(c2ncnc3c2C(C)CC3O)CC1)c1ccc(Cl)cc1 (centres undefined) + C=CC(=O)N1CCN(c2nc(=O)n(-c3c(C)ccnc3C(C)C)c3nc(-c4c(O)cccc4F)c(F)cc23)C(C)C1 ... Satisfied

Inquiry: # check: viability, T/C < 30% for COc1cc2nccc(Oc3ccc(NC(=O)C4(C(=O)Nc5ccc(F)cc5)CC4)cc3)c2cc1OC + CNCc1ccccc1-c1csc(C(C)Nc2nc(C)nc3cc(OC)c(OC)cc23)c1
Reply text: Satisfied

Inquiry: How about this compound: CC1(C)CCC(CN2CCN(c3ccc(C(=O)NS(=O)(=O)c4ccc(NCC5CCOCC5)c([N+](=O)[O-])c4)c(Oc4cnc5[nH]ccc5c4)c3)CC2)=C(c2ccc(Cl)cc2)C1 + COc1cc2nc(C)nc(NC(C)c3cc(N)cc(C(F)(F)F)c3)c2cc1OC1CCOC1
Reply text: Not satisfied

Inquiry: How about this compound: COc1cc2nccc(Oc3ccc(NC(=O)C4(C(=O)Nc5ccc(F)cc5)CC4)cc3)c2cc1OC + C=CC(=O)N1CCN(c2nc(=O)n(-c3c(C)ccnc3C(C)C)c3nc(-c4c(O)cccc4F)c(F)cc23)C(C)C1
Reply text: Satisfied

Inquiry: How about this compound: COc1cc2nccc(Oc3ccc(NC(=O)C4(C(=O)Nc5ccc(F)cc5)CC4)cc3)c2cc1OC + CC1OCC2(CCN(c3cnc(Sc4ccnc(N)c4Cl)c(N)n3)CC2)C1N
Reply text: Satisfied

Inquiry: How about this compound: COC(=O)c1ccc2c(C(=Nc3ccc(N(C)C(=O)CN4CCN(C)CC4)cc3)c3ccccc3)c(O)[nH]c2c1 + C=CC(=O)N1CCN(c2nc(=O)n(-c3c(C)ccnc3C(C)C)c3nc(-c4c(O)cccc4F)c(F)cc23)C(C)C1
Reply text: Not satisfied

Inquiry: How about this compound: COC(=O)c1ccc2c(C(=Nc3ccc(N(C)C(=O)CN4CCN(C)CC4)cc3)c3ccccc3)c(O)[nH]c2c1 + CNCc1ccccc1-c1csc(C(C)Nc2nc(C)nc3cc(OC)c(OC)cc23)c1
Reply text: Not satisfied

Inquiry: How about this compound: CC1(C)CCC(CN2CCN(c3ccc(C(=O)NS(=O)(=O)c4ccc(NCC5CCOCC5)c([N+](=O)[O-])c4)c(Oc4cnc5[nH]ccc5c4)c3)CC2)=C(c2ccc(Cl)cc2)C1 + CC1OCC2(CCN(c3cnc(Sc4ccnc(N)c4Cl)c(N)n3)CC2)C1N
Reply text: Satisfied

Inquiry: How about this compound: Cn1nccc1Nc1nccc(-c2cc3c(s2)C(C)(C)N(CCN2CCOCC2)C3=O)n1 + CNCc1ccccc1-c1csc(C(C)Nc2nc(C)nc3cc(OC)c(OC)cc23)c1
Reply text: Not satisfied

* * *

tested on: LG0567-F671-PDC KRAS tumor spheroid viability; experiment: Anticancer human tumor LG0567-F671-PDC cell line growth inhibition [KRAS2]; conditions: second compound 0.316 µM; first compound 0.1 µM; active compounds read low; spheroids with HUVEC and MSC;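 further: drug exposure lasted seven days after spheroids formed for three days; 100% = DMSO vehicle control viability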
Reported viability, T/C values for a set of compounds
Express it in %; write the number only.

1) CC1COCCN1c1cc(-c2ccnn2C)c2ccnc(-c3ccn[nH]3)c2n1 (stereo not given) + CNCc1ccccc1-c1csc(C(C)Nc2nc(C)nc3cc(OC)c(OC)cc23)c1 ... 60.6
2) COc1cc(Nc2ncc3c(n2)-c2ccc(Cl)cc2C(c2c(F)cccc2OC)=NC3)ccc1C(=O)O + CNCc1ccccc1-c1csc(C(C)Nc2nc(C)nc3cc(OC)c(OC)cc23)c1 ... 54.3
3) CC(C)n1nc(-c2ccc3oc(N)nc3c2)c2c(N)ncnc21 + C=CC(=O)N1CCN(c2nc(=O)n(-c3c(C)ccnc3C(C)C)c3nc(-c4c(O)cccc4F)c(F)cc23)C(C)C1 ... 7.08
4) CCN1CCN(Cc2ccc(Nc3ncc(F)c(-c4cc(F)c5nc(C)n(C(C)C)c5c4)n3)nc2)CC1 + C=CC(=O)N1CCN(c2nc(=O)n(-c3c(C)ccnc3C(C)C)c3nc(-c4c(O)cccc4F)c(F)cc23)C(C)C1 ... 16.4

Inquiry: Recorded viability, T/C of CC1(C)CCC(CN2CCN(c3ccc(C(=O)NS(=O)(=O)c4ccc(NCC5CCOCC5)c([N+](=O)[O-])c4)c(Oc4cnc5[nH]ccc5c4)c3)CC2)=C(c2ccc(Cl)cc2)C1 + C=CC(=O)N1CCN(c2nc(=O)n(-c3c(C)ccnc3C(C)C)c3nc(-c4c(O)cccc4F)c(F)cc23)C(C)C1 , please.
Reply text: 28.8

* * *

test system: LG0567-F671-PDC KRAS tumor spheroid viability; experiment: Anticancer human tumor LG0567-F671-PDC cell line growth inhibition [KRAS2]; conditions: second compound 0.1 µM; first compound 0.0316 µM; active compounds read low; spheroids with HUVEC and MSC;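 further: drug exposure lasted seven days after spheroids formed for three days; 100% = DMSO vehicle control viability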
OBSERVED_PROPERTY: viability, T/C (%)
Express it in %; write the number only.

1. CCNC(=O)CC1N=C(c2ccc(Cl)cc2)c2cc(OC)ccc2-n2c(C)nnc21 (stereo not drawn) + CNCc1ccccc1-c1csc(C(C)Nc2nc(C)nc3cc(OC)c(OC)cc23)c1 ... 96.7
2. CCNC(=O)CC1N=C(c2ccc(Cl)cc2)c2cc(OC)ccc2-n2c(C)nnc21 (stereo not drawn) + COc1cc2nc(C)nc(NC(C)c3cc(N)cc(C(F)(F)F)c3)c2cc1OC1CCOC1 ... 97

Inquiry: // map CC(=O)OC12COC1CC(O)C1(C)C(=O)C(O)C3=C(C)C(OC(=O)C(O)C(NC(=O)OC(C)(C)C)c4ccccc4)CC(O)(C(OC(=O)c4ccccc4)C21)C3(C)C (stereo not drawn) + C=CC(=O)N1CCN(c2nc(OCC3CCCN3C)nc3c2CCN(c2cccc4cccc(C)c24)C3)CC1CC#N to recorded viability, T/C (system: LG0567-F671-PDC KRAS tumor spheroid viability)
Reply text: 13.2
